SUBJECT_OF_TEST: human α5β1 (Homo sapiens, UniProt P05556+P08648)
Construct: hα5 1 995; hβ1 1 728; made in house; host or cells: Expi293
Sequence (P08648 42-995, one chain of several): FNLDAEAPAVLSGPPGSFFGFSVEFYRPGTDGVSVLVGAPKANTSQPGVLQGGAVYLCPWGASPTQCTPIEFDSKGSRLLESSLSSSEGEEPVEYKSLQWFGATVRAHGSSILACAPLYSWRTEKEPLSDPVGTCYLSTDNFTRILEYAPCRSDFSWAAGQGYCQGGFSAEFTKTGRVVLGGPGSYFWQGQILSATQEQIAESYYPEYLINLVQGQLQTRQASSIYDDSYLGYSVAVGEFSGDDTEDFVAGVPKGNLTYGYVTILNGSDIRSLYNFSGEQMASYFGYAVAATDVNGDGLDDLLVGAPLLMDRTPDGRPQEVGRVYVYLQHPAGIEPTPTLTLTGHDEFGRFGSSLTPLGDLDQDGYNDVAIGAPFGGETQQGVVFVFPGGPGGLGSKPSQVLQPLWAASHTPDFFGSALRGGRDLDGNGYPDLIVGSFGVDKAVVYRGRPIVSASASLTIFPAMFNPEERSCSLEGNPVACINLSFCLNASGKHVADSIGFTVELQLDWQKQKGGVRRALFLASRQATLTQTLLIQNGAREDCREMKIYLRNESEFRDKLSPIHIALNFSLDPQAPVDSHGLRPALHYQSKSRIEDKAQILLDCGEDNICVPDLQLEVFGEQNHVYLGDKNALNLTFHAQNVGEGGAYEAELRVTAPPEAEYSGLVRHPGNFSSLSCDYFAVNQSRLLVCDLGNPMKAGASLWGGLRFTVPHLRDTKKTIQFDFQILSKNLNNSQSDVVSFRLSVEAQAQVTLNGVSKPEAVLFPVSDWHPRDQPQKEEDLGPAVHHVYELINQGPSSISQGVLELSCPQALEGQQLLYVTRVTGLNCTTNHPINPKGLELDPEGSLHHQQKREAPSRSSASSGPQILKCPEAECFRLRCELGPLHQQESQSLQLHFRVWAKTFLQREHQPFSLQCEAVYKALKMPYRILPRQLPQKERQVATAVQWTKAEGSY
PROCEDURE_DETAILS: AlphaLISA integrin-ligand binding assay
Assay type: biochemical
ASSAY_CONDITIONS: Fig. 3D, assay optimisation; read-out: IC50 human α5β1 AlphaLISA
METRIC: pIC50
Scale note: pIC50 = -log10(concentration in M).

Briefly, pIC50 measured for COc1ccc(C(CC(=O)O)N2CCN(CCCc3ccc4c(n3)NCCC4)C2=O)cn1 (stereo not shown) : 7.76

---

SUBJECT_OF_TEST: mouse αvβ3 (Mus musculus, UniProt O54890+P43406)
Construct: mαV 1 988; m β3 1 717
PROCEDURE_DETAILS: AlphaLISA integrin-ligand binding assay
ASSAY_CONDITIONS: Fig. 4B; read-out: IC50 Mouse integrin AlphaLISA assays: mαvβ3
METRIC: pIC50
# reply with the number alone; pIC50 is -log10 of concentration in mol/L

Reported pIC50 (mouse αvβ3 (Mus musculus, UniProt O54890+P43406)) for entry COc1ccc(C(CC(=O)O)N2CCN(CCCc3ccc4c(n3)NCCC4)C2=O)cn1 (stereo not shown) [MK-0429] is 9.05

---

SUBJECT_OF_TEST: human αvβ6 (Homo sapiens, UniProt P06756+P18564)
Sequence (P18564 22-709, one chain of several): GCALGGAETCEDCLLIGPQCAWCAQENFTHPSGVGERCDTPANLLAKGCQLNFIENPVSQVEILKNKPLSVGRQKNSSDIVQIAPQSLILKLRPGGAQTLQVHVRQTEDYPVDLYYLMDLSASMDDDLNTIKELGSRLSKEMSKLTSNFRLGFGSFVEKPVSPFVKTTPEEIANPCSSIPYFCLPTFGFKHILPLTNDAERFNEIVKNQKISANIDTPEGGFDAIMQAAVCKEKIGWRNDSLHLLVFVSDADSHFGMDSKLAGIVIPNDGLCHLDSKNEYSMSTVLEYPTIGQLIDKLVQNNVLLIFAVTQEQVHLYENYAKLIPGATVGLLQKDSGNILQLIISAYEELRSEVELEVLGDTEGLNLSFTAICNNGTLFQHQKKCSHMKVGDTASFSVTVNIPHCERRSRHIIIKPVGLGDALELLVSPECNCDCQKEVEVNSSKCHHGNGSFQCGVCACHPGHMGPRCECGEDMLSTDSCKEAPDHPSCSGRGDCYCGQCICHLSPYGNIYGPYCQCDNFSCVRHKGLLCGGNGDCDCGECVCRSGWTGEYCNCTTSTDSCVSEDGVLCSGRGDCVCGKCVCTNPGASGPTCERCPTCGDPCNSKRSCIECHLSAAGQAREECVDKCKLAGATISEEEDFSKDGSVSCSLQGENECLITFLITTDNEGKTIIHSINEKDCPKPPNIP
PROCEDURE_DETAILS: AlphaLISA integrin-ligand binding assay
Assay type: biochemical
Design: hαV 1 992; hβ6 1 709; made in house; host or cells: Expi293
ASSAY_CONDITIONS: Fig. 4B; read-out: IC50 Human integrin AlphaLISA assays: hαvβ6
METRIC: pIC50
Expect pIC50 as a plain number equal to -log10 of the molar concentration.

Entry COc1ccc(C(CC(=O)O)N2CCN(CCCc3ccc4c(n3)NCCC4)C2=O)cn1 (stereo not shown) [MK-0429] — recorded pIC50 = 9.30

---

SUBJECT_OF_TEST: mouse αvβ8 (Mus musculus, UniProt P43406+Q0VBD0)
Construct: mαV 1 988; m β8 1 679
Sequence (P43406 31-988): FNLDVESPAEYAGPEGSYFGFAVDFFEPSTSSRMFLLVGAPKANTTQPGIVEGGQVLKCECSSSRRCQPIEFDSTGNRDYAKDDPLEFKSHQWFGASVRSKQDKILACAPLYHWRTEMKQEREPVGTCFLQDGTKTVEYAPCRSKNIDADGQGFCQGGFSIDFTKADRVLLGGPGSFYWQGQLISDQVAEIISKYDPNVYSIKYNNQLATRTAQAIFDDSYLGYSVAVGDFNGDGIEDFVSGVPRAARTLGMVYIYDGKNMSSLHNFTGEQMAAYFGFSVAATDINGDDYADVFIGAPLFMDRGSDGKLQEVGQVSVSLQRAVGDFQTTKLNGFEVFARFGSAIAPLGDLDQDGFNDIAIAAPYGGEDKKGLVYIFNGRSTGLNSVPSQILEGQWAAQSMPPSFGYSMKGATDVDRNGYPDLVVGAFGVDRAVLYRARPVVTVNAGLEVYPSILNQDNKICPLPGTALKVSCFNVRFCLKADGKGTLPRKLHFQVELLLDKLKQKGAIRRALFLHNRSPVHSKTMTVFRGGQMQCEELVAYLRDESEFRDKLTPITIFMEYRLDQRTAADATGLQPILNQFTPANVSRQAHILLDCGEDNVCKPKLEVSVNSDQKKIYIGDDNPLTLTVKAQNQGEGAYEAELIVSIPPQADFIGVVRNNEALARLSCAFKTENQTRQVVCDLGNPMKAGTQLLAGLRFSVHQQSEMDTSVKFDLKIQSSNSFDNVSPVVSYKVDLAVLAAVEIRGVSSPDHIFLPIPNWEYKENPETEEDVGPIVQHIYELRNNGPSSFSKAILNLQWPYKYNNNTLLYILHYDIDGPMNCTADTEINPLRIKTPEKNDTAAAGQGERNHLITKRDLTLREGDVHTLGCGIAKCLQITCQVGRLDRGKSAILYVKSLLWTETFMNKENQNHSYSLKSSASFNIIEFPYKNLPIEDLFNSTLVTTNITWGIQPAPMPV
Sequence (Q0VBD0 22-679): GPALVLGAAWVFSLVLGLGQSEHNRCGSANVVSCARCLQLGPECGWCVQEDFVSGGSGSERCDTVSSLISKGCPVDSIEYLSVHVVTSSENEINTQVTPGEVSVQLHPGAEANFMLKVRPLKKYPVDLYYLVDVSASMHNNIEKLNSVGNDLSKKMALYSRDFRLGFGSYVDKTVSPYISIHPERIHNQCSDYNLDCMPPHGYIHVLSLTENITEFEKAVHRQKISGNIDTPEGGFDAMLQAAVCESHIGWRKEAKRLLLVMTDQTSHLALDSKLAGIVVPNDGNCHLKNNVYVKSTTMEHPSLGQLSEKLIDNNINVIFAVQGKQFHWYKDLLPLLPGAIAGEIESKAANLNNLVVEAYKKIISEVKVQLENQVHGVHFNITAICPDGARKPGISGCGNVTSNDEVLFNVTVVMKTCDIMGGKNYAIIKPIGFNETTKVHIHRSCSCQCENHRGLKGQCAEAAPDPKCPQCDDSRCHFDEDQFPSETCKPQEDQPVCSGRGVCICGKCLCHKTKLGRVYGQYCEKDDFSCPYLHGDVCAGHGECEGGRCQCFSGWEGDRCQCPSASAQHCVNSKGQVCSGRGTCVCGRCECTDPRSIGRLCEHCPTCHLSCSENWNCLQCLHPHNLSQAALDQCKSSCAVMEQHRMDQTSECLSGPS
PROCEDURE_DETAILS: AlphaLISA integrin-ligand binding assay
ASSAY_CONDITIONS: Fig. 4B; read-out: IC50 Mouse integrin AlphaLISA assays: mαvβ8
METRIC: pIC50
Please report pIC50 as the negative decimal logarithm of the molar concentration, giving only the number.

According to the records, this molecule COc1ccc(C(CC(=O)O)N2CCN(CCCc3ccc4c(n3)NCCC4)C2=O)cn1 (stereo not shown) [MK-0429] displays pIC50 of 8.28

---

SUBJECT_OF_TEST: human αvβ8 (Homo sapiens, UniProt P06756+P26012)
Sequence (P06756 31-992): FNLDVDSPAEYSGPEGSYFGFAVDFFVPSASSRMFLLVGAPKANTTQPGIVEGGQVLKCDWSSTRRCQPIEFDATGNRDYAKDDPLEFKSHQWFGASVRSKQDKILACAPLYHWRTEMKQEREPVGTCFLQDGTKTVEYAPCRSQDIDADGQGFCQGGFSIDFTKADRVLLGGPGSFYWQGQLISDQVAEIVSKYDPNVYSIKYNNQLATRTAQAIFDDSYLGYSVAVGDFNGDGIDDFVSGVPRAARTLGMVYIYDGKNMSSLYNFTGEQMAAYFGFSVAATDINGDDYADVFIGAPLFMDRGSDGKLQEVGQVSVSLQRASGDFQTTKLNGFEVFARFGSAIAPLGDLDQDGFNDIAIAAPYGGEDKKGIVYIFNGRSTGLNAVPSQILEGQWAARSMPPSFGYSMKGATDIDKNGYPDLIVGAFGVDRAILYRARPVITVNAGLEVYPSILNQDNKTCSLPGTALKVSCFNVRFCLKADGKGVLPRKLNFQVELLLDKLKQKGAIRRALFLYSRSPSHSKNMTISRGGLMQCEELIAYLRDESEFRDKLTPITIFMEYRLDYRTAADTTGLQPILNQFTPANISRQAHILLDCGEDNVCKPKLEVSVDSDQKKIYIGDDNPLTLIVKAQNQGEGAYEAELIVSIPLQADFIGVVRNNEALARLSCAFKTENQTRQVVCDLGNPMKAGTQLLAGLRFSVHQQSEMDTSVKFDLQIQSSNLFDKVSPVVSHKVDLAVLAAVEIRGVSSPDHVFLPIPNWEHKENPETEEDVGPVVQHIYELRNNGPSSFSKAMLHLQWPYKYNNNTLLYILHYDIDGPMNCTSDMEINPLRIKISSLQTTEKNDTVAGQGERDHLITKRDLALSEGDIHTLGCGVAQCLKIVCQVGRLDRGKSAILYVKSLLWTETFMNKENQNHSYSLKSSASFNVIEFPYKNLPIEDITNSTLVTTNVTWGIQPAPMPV
Sequence (P26012 43-684): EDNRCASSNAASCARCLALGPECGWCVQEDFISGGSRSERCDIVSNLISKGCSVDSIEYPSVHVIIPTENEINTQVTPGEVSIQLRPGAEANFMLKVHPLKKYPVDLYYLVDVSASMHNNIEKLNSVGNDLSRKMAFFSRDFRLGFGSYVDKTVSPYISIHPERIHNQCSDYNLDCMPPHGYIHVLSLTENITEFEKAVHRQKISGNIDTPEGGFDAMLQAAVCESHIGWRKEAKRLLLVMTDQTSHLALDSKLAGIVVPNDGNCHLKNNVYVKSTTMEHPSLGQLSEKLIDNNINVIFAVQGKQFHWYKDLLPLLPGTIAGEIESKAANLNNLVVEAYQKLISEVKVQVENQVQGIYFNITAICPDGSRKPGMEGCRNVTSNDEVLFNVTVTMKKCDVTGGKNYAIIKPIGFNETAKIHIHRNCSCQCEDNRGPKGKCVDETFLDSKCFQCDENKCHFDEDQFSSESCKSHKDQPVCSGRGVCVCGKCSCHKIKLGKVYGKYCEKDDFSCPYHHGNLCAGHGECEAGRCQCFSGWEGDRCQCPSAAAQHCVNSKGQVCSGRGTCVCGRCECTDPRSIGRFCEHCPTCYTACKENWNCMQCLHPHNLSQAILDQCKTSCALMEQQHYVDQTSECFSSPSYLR
PROCEDURE_DETAILS: AlphaLISA integrin-ligand binding assay
Type: biochemical
Set-up: hαV 1 992; hβ8 1 684; made in house; host or cells: Expi293
ASSAY_CONDITIONS: Fig. 3D, assay optimisation; read-out: IC50 human αvβ8 AlphaLISA
METRIC: IC50 (nM)
Give the value in nM but do not write nM after it.

Summary for this molecule, COc1ccc(C(CC(=O)O)N2CCN(CCCc3ccc4c(n3)NCCC4)C2=O)cn1 (stereo not shown) [MK-0429] : IC50 is 58.3

---

SUBJECT_OF_TEST: mouse α5β1 (Mus musculus, UniProt P09055+P11688)
Construct: mα5 1 999; m β1 1 728
PROCEDURE_DETAILS: AlphaLISA integrin-ligand binding assay
ASSAY_CONDITIONS: Fig. 4B; read-out: IC50 Mouse integrin AlphaLISA assays: mα5β1
METRIC: pIC50
Field pIC50 (float): negative decimal logarithm of the concentration in molar.

The recorded pIC50 for entry COc1ccc(C(CC(=O)O)N2CCN(CCCc3ccc4c(n3)NCCC4)C2=O)cn1 (stereo not shown) [MK-0429] equals 7.30

---

SUBJECT_OF_TEST: human αvβ1 (Homo sapiens, UniProt P05556+P06756)
Sequence (P06756 31-992): as the sequence (P06756 31-992) above
Sequence (P05556 21-728): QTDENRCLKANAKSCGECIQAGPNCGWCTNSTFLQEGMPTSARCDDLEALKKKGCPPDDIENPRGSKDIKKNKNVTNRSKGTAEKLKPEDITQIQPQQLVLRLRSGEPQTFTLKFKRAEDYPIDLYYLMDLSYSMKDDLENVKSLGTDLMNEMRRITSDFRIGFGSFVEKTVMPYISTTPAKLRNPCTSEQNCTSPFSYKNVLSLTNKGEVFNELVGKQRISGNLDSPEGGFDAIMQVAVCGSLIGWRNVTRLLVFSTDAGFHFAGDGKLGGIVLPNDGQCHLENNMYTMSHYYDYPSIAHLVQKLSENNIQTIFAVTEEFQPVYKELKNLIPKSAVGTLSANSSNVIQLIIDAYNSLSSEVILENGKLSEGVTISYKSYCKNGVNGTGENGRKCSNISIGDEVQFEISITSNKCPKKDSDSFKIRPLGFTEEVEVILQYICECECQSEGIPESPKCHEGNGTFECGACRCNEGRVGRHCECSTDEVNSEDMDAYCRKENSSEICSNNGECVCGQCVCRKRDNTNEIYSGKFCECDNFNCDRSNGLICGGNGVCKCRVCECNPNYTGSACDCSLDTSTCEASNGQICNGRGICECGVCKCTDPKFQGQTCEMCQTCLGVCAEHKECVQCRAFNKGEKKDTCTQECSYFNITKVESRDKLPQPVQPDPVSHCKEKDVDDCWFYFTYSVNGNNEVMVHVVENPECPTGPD
PROCEDURE_DETAILS: AlphaLISA integrin-ligand binding assay
Assay type: biochemical
Parameters: hαV 1 992; hβ1 1 728; made in house; host or cells: Expi293
ASSAY_CONDITIONS: Fig. 3D, assay optimisation; read-out: IC50 human αvβ1 AlphaLISA
METRIC: pIC50
The scale used: pIC50 is minus the common logarithm of the concentration in molar units.

# pIC50 (molecule: COc1ccc(C(CC(=O)O)N2CCN(CCCc3ccc4c(n3)NCCC4)C2=O)cn1 (stereo not shown) ) is 9.34

---

SUBJECT_OF_TEST: human αvβ3 (Homo sapiens, UniProt P05106+P06756)
Construct: hαV 1 992; hβ3 1 718; made in house; host or cells: Expi293
Sequence (P05106 27-718, one chain of several): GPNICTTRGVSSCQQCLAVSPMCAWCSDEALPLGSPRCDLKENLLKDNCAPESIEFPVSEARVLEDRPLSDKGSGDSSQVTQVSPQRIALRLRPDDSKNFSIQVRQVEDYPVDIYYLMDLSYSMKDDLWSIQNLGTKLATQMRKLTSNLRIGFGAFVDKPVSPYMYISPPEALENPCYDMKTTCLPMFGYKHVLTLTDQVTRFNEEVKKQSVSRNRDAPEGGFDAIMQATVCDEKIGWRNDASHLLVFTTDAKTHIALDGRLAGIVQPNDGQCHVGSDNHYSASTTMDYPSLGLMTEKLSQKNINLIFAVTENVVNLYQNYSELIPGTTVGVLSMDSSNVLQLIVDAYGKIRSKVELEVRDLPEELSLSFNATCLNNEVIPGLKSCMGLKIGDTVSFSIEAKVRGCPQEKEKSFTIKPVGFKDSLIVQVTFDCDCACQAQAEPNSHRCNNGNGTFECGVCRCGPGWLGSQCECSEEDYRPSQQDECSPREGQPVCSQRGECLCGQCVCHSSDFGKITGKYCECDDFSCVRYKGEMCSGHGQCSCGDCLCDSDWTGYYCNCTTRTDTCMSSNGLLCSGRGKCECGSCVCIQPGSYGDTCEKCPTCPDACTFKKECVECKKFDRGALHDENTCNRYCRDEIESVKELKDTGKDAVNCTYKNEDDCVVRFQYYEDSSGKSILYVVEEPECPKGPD
PROCEDURE_DETAILS: AlphaLISA integrin-ligand binding assay
Assay type: biochemical
ASSAY_CONDITIONS: Fig. 4B; read-out: IC50 Human integrin AlphaLISA assays: hαvβ3
METRIC: pIC50
Formally, pIC50 is defined as -log10 of the concentration c, with c in mol/L.

# pIC50 (molecule: COc1ccc(C(CC(=O)O)N2CCN(CCCc3ccc4c(n3)NCCC4)C2=O)cn1 (stereo not shown) ) is 8.80

---

SUBJECT_OF_TEST: human αvβ1 (Homo sapiens, UniProt P05556+P06756)
PROCEDURE_DETAILS: AlphaLISA integrin-ligand binding assay
Type: biochemical
Set-up: hαV 1 992; hβ1 1 728; made in house; host or cells: Expi293
ASSAY_CONDITIONS: Fig. 4B; read-out: IC50 Human integrin AlphaLISA assays: hαvβ1
METRIC: pIC50
pIC50 here is simply -log10 of the concentration when that concentration is written in mol/L.

The reported value for COc1ccc(C(CC(=O)O)N2CCN(CCCc3ccc4c(n3)NCCC4)C2=O)cn1 (stereo not shown) in terms of pIC50 is 9.00
